- System: Fibroblast
- measurement.notes: Multiplex assay against human fibroblast
- Type: toxicity, cell-based
- condition.summary: 12 h, 10 µM, compound concentration 10 uM, replicate 1
Known Population Mitochondria Different-Phenotype (%) of a selection of molecules
measured.property: Population Mitochondria Different-Phenotype (%)

1. Cc1cnc(-c2cc(N3CCN(C(=O)CCS(C)(=O)=O)CC3)ncc2Cl)c(C)c1 :: 2
2. CC(C)c1noc(N2CCC(COc3ccc(-c4ccc(S(C)(=O)=O)cc4)nc3)CC2)n1 :: 5
3. Cc1noc(-c2ccc(-c3ccc(CC(=O)O)cc3)cc2)c1NC(=O)O[C@H](C)c1ccccc1Cl :: 6
4. COc1ccccc1N1CCN(C[C@@H](C(=O)NC(C)(C)C)c2ccccc2)CC1.Cl.Cl :: 20
5. CCCCCC(O)/C=C/[C@H]1C(=O)CC(O)C1C/C=C\CCCC(=O)O (stereo not given in full) :: 1
6. CN1CCN(c2cc(-c3ccccc3)nc(N)n2)CC1 :: 6
7. CCCCC1=NC2(CCCC2)C(=O)N1Cc1ccc(-c2ccccc2-c2nnn[nH]2)cc1 :: 4
8. N#Cc1cc(F)cc(-c2nc(-c3ccc(F)cn3)no2)c1 :: 5
9. CCCCC(=O)N(Cc1ccc(-c2ccccc2-c2nnn[nH]2)cc1)[C@H](C(=O)O)C(C)C :: 3
10. COc1cccc2c1c(NS(=O)(=O)c1ccc(Cl)s1)nn2Cc1cccc(CNC(=O)C(C)(C)O)c1 :: 11
11. Cl.N=C(N)NC(=O)Cc1c(Cl)cccc1Cl [GUANFACINE HYDROCHLORIDE] :: 5
12. CC(/C=C1\SC(=S)N(CCCC(=O)Nc2ccc(C(=O)O)c(O)c2)C1=O)=C\c1ccccc1 :: 5
13. CCc1cc2cc(NS(=O)(=O)c3ccc(C#N)cc3)ccc2n(CC)c1=O :: 5
14. Cc1sc2c(c1C)C(c1ccc(Cl)cc1)=N[C@@H](CC(=O)NCCCCCCCCNC(=O)COc1cccc3c1C(=O)N(C1CCC(=O)NC1=O)C3=O)c1nnc(C)n1-2 (stereo not given in full) :: 19
15. Cc1onc(-c2ccccc2Cl)c1C(=O)N(C)c1ccc(Cl)cc1 :: 6
